Numbers sourced from the supplement of paper PMC9732359.

Below, each entry is listed alongside its reported protein stability index.
Test: protein stability index of a GFP-peptide fusion (yeast GPS) (PSI 1-4); higher = more stable; sorted into four equal gates, so the index is relative within each strain
Conditions: pdr5∆
Keep it simple and answer with nothing but the number.

Examples with their reported protein stability index follow.
SPDGRNFQVEYAVKAVE [PRE10] :: 2.81
QELKADSPFSLICQNNL [SRP72] :: 2.56
GATYRGKLVESEDSMNV [SMD3] :: 2.73
SSNPNSSLHSPTSDEPV [SRB4] :: 2.99
TTTKIIDSTDHIRKASS [LRP1] :: 2.07
RCKIYFFYLRISKKLQF [PCI8] :: 1.31
ETLAYNSLKETLQDFHL [SNF2] :: 3.04
GKLFSDIKVLKRQLIKE [YIL149C/MLP2] :: 2.56

**Query** Reported protein stability index, sequence QLNASISLIPELSVVLS [RRI2] : ____
**Result** 2.96

**Query** Would you kindly repeat that for RLHYYPKDPSNVETYEQ [BRR2] ?
**Result** 3.11

**Query** Next up: KYCEIMGDNSQLDFTEF [SNF2]
**Result** 3.2

**Query** Please answer likewise for LTNDTFEKKLSIIKAKL [YML103C/NUP188]
**Result** 2.99

**Query** Again, but for SNSMDRSSSASNEFVPN [SWI1]
**Result** 2.71
